# assay-info: NCI Yeast Anticancer Drug Screen. Data for the mec2-1 strain (AID 157)
# setup-conditions: S. cerevisiae mec2-1 strain, at 50.0 µM
Compounds without any hit were thinned out: in the full panel of roughly 79,000, 15% have a hit. Calls of active or inactive are those of the source. Rule as the data show it: active = growth inhibition above about 70%; inactive = the rest.
Classes used: Yes for active, No for inactive

INSERT INTO assay_data (compound, classification) VALUES
  ('CS(=O)(=O)OCCN(CCOS(C)(=O)=O)c1ccc(C=Nc2ccc3oc(=O)ccc3c2)cc1', 'Yes'),
  ('Oc1ccc(N=Nc2ccccc2)c(O)c1.Oc1ccc(N=Nc2ccccc2)c(O)c1.[Cu]', 'Yes'),
  ('CCn1c2ccccc2c2ccc(N=Nc3ccc(N(C)C)cc3)cc21', 'Yes'),
  ('COc1cccc(/C=C2/Sc3scc(-c4ccccc4)[n+]3C2=O)c1O', 'No'),
  ('Cc1ccnc2sc3ccccc3c(=O)c12', 'Yes'),
  ('Cc1cc(C(=O)c2ccccc2)ccc1O', 'No'),
  ('OC12C3C4CC5C(C4[C@@H]1Br)C2[C@@](O)(c1c(F)c(F)c(F)c(F)c1F)C53 (stereo partly drawn)', 'No'),
  ('CCOC(=O)CCC(=O)Oc1ccc2c(c1OC(=O)CCC(=O)OCC)C(=O)c1ccccc1C2=O', 'Yes'),
  ('O=C1NC(=S)S/C1=C/c1ccc(/C=C2/SC(=S)NC2=O)cc1', 'No'),
  ('CC(=O)Oc1c2c(c(OC(C)=O)c3c1n(C(C)=O)c1ccccc1n3C(C)=O)n(C(C)=O)c1ccccc1n2C(C)=O', 'Yes'),
  ('O=C(O)CCCCCCCCCC[S+](CCO)CCO', 'No'),
  ('CC[N+]1(C)CCC(O)(c2ccc(Cl)c(Cl)c2)C(C(=O)c2ccc(Cl)c(Cl)c2)C1 (stereo not drawn)', 'Yes'),
  ('O=c1ccnc(Nc2ccc[nH]c2=S)[nH]1', 'No'),
  ('CCN(CC)C(C)(C)C(=O)/C=C/c1ccc(Cl)c(Cl)c1', 'Yes'),
  ('Oc1ccccc1C(Sc1nc2ccccc2s1)Sc1nc2ccccc2s1', 'Yes'),
  ('O=C(O)COc1ccccc1C(=O)O', 'No'),
  ('O=C(Nc1ccc(Cl)cc1)Nc1cc(Cl)ccc1O', 'Yes'),
  ('Nc1cc(Br)cc2c1[nH]c1ccc(Br)cc12', 'Yes'),
  ('CC/C(C)=C1\CCC(CN2CCOCC2)C1=O (stereo not drawn)', 'Yes'),
  ('Oc1ccc2ccccc2c1CNc1ccc2ccccc2c1', 'Yes'),
  ('O=C1c2ccccc2C2N1CCCN2C(=O)c1sc2ccccc2c1Cl (stereo not drawn)', 'Yes'),
  ('NNc1ccccc1F', 'Yes'),
  ('CS(=O)(=O)OCCN(CCOS(C)(=O)=O)c1ccc(C=Nc2ccc(-c3csc(-c4ccc(Br)cc4)n3)cc2)c(Cl)c1', 'No');

---

This listing pairs compounds with measured growth inhibition.
# assay-info: NCI Yeast Anticancer Drug Screen. Data for the cln2 rad14 strain (AID 165);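 also: 0% = growth equal to vehicle treated cultures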
# setup-conditions: S. cerevisiae cln2 rad14 strain, at 50.0 µM (retest, dose inferred, filed as 5.0), hits give high values
The panel holds about 79,000 compounds, 15% with a hit somewhere; the sample as a whole holds those more often. The source made the active and inactive calls. No stated cut-off is given here; in the data, active means growth inhibition above about 70%; inactive means the rest.
measured-property: growth inhibition

INSERT INTO assay_data (compound, reported_result) VALUES
  ('O=[N+]([O-])c1cc([N+](=O)[O-])c2ccccc2c1O', '48% (inactive)'),
  ('Nc1ccccc1N=Nc1c(S(=O)(=O)O)cc2cc(S(=O)(=O)O)cc(O)c2c1O', '-10% (inactive)'),
  ('C=C1C(=O)[C@]23C[C@H]1CC[C@H]2[C@@]12CO[C@@H](O)[C@@H]1C(C)(C)[C@@H](O)C[C@@H]2OC3=O', '95% (active)'),
  ('C#CC[N+](CC)(CC)CCNC(=O)CCCCCCCCCCCCCCC', '99% (active)'),
  ('O=C(c1ccc(Cl)cc1)c1ccc([N+](=O)[O-])cc1', '1% (inactive)'),
  ('O=C(O)CSCc1cc2c3ccccc3sc2c2ccccc12', '99% (active)'),
  ('c1cc2c3c(c1)[I+]c1cccc(c1-3)[I+]2', '40% (inactive)'),
  ('O=C1C=CC(=O)c2ccc(=O)ccc21', '98% (active)'),
  ('CSC(=Nc1ccccc1)/N=C(\SCc1ccccc1)N(C)C', '99% (active)'),
  ('CC1(C)CC(=O)C2=C(C1)OC1=C(CC(C)(C)CC1=O)C2c1ccccc1[N+](=O)[O-] (configuration not stated)', '41% (inactive)'),
  ('CC(C)C(OC(=O)c1ccc(NCC2=CC(=O)C=CC2=O)cc1)C(C)C', '32% (inactive)'),
  ('C=CCNC(=O)c1ccccc1C(=O)O', '18% (inactive)'),
  ('CCN(CC)Cc1cc(Nc2c3ccccc3nc3c4ccccc4n(C)c23)ccc1O', '0% (inactive)'),
  ('CC1Cc2cc(O)c(O)cc2-c2cc(O)c(O)cc2CC1C (configuration not stated)', '85% (active)'),
  ('COc1ccc(C(=O)Cn2c(C(C)=O)nc3ccccc32)cc1', '32% (inactive)'),
  ('Cc1ccc(O)c(-c2cscn2)c1', '72% (active)'),
  ('COc1ccccc1C1c2cc3c(cc2OC2(OC)COC(=O)C12)OCO3 (configuration not stated)', '35% (inactive)'),
  ('CCOC(=O)/C(=C\c1ccc(Br)cc1)C(C)=O', '98% (active)'),
  ('CCOc1ccccc1C(=O)Oc1cccc(C)c1', '32% (inactive)'),
  ('Oc1ccc(Br)cc1-c1nc2cc(Cl)c(Cl)cc2nc1-c1cc(Br)ccc1O', '91% (active)'),
  ('N#Cc1cc2c(cc1Cl)Sc1nccn1S2(=O)=O', '17% (inactive)'),
  ('CCc1cc(C)cc(NC(=O)OC2CCCCC2C)c1 (configuration not stated)', '69% (inactive)'),
  ('CCC(=O)c1cc2ccccc2c2ccccc12', '0% (inactive)'),
  ('C1=CN2C(c3ccccc3)=NN(c3ccccc3)[C@@H]2c2ccccc21', '22% (inactive)'),
  ('O=C1C=CC(=O)N1c1ccc(Cl)cc1Br', '100% (active)'),
  ('O=c1c2ccccc2[nH]c2c1[nH]c1ccccc12', '11% (inactive)'),
  ('O=C1CCC(Cc2ccccc2Br)C(=O)N1 (configuration not stated)', '8% (inactive)'),
  ('CCCc1nc2ccccc2c(=O)n1/N=C/c1ccccc1O', '-2% (inactive)'),
  ('CCOC(=O)c1cnc2ccc(C3CCCCC3)cc2c1Nc1ccc2c(c1)OCO2', '92% (active)'),
  ('Cc1cc(Nc2ccc(N=Nc3ccc(O)c4ncccc34)cc2)nc(C)n1', '6% (inactive)'),
  ('CCCCCCCCCCCN1C(=O)c2ccccc2S1(=O)=O', '34% (inactive)'),
  ('COc1ccc2c3c(c4cc(OC)c(OC)cc4c2c1)CN1CCC[C@H]1[C@@H]3O', '97% (active)'),
  ('C=CCOc1ccc(/C=N/NC(N)=S)cc1', '87% (active)'),
  ('CCc1ccccc1NC(=O)C(=O)CC(=O)c1ccc(Cl)s1', '6% (inactive)'),
  ('CCC1(O)c2ccccc2C(O)(CC)c2ccccc21 (configuration not stated)', '21% (inactive)'),
  ('OCC(O)C(O)C(O)C(O)c1cnn(-c2ccccc2)n1 (configuration not stated)', '-2% (inactive)'),
  ('CCCCCCCCCCCCOC(=O)C[n+]1cccc(C(=O)Nc2ccccc2)c1', '99% (active)'),
  ('CN(C)CCCC1(c2ccccc2)SC(C)(C)c2ccc(Cl)cc21 (configuration not stated)', '0% (inactive)'),
  ('CCOC(=O)CN1CCCC(C(=O)CC2(O)C3(Cl)C4(Cl)C5(Cl)C(Cl)(Cl)C6(Cl)C4(Cl)C2(Cl)C6(Cl)C53Cl)C1 (configuration not stated)', '99% (active)'),
  ('Oc1cccc(Oc2cccc(Oc3ccccc3)c2)c1', '99% (active)'),
  ('Nc1ccc2nc(Nc3ccc(Cl)c(Cl)c3)cnc2c1', '97% (active)'),
  ('CCN(CC)C(=S)N/N=C(/c1ccccc1)c1ccccn1', '95% (active)'),
  ('O=c1ccn(C2OC(COC(c3ccccc3)(c3ccccc3)c3ccccc3)C(O)C2O)c(=O)[nH]1 (configuration not stated)', '98% (active)'),
  ('CCCCCOC(=O)CSC#N', '99% (active)'),
  ('O=[N+]([O-])c1ccc(NS(=O)(=O)c2ccccc2)c(NS(=O)(=O)c2ccccc2)c1', '32% (inactive)'),
  ('CCCCCN1C(=O)CC(C(=O)OCC)=C1C', '1% (inactive)'),
  ('OCCN=Cc1cccs1', '1% (inactive)');

---

# assay-info: NCI Yeast Anticancer Drug Screen. Data for the mlh1 rad18 strain (AID 175)
# setup-conditions: S. cerevisiae mlh1 rad18 strain growth inhibition; at 50.0 µM
The panel holds about 79,000 compounds, 15% with a hit somewhere; the sample as a whole holds those more often. The source made the active and inactive calls. Cut-off read from the data, not from the text of the source: active = growth inhibition above about 70%; inactive = the rest.
Classes used: active, inactive

INSERT INTO measurements (compound, classification) VALUES
  ('O=[N+]([O-])c1cc([N+](=O)[O-])c2ccccc2c1O', 'active'),
  ('Cc1c(F)c(C)c(C(=O)O)c(C)c1F', 'active'),
  ('Clc1ccc(C2=CC(c3ccccc3)N3C(=N[C@H]4CCCC[C@@H]43)N2)cc1 (stereo partly drawn)', 'active'),
  ('CC1=CC(=N/O)/C=CC/1=C(\C#N)c1ccccc1', 'active'),
  ('CCCCCCCC/C=C\CCCCCCCC(=O)OCCCCC', 'inactive'),
  ('N#CC1=C(N)OC(c2ccccc2)=C(C#N)C1c1ccccc1[N+](=O)[O-] (stereo not drawn)', 'inactive'),
  ('COc1ccc(NC(=O)CC(=O)n2nc(-c3ccccc3)c(N=Nc3ccc(C)cc3)c2-c2ccccc2)cc1', 'inactive'),
  ('CC1(C)CC(=O)C2=C(C1)OC1=C(CC(C)(C)CC1=O)C2c1ccccc1[N+](=O)[O-] (stereo not drawn)', 'inactive'),
  ('C[n+]1c(/C=C/c2ccc(Cl)cc2)sc2ccccc21', 'active'),
  ('Oc1ccc[nH]c1=S', 'active'),
  ('CCCc1cc2c(cc1CS(=O)(=O)CC)OCO2', 'inactive'),
  ('COc1ccc2c(c1)CCc1c(-c3noc4c3CCc3cc(OC)ccc3-4)noc1-2', 'inactive'),
  ('COc1ccccc1NC(=O)C1=C(C)NC(C)=C(C(=O)Nc2ccccc2OC)C1c1ccc(C2C(C(=O)Nc3ccccc3OC)=C(C)NC(C)=C2C(=O)Nc2ccccc2OC)cc1', 'inactive'),
  ('Nc1cc(F)cc(F)c1[N+](=O)[O-]', 'active'),
  ('Cc1cn(C(C#N)=C(C#N)C#N)c2ccccc12', 'inactive'),
  ('Nc1ccc2c(c1)C(=O)c1ccccc1-2', 'inactive'),
  ('Clc1ccc(Cl)c(SCCCN2CCNCC2)c1', 'active'),
  ('Cc1ccccc1C(=O)c1ccc(O)c2ccccc12', 'active'),
  ('CCC(CC)COC(=O)c1cccnc1', 'active'),
  ('O/N=C\c1ccc(-c2ccccc2)cc1', 'inactive'),
  ('O=C(O)/C=C/c1ccc(Cl)c(Cl)c1', 'active'),
  ('CCC[CH2][Sn]([CH2]CCC)([O]C(=O)Cc1ccc(F)cc1)[O]C(=O)Cc1ccc(F)cc1', 'active'),
  ('Cc1ccc(N=Nc2c(C)c(C#N)c(=S)n(C3OC(CO)C(O)C(O)C3O)c2-c2ccccc2)cc1 (stereo not drawn)', 'inactive');

Where these numbers come from: PubChem BioAssay (NCI)
